Target: PKM2 (Homo sapiens)
Sequence (P14618 whole entry): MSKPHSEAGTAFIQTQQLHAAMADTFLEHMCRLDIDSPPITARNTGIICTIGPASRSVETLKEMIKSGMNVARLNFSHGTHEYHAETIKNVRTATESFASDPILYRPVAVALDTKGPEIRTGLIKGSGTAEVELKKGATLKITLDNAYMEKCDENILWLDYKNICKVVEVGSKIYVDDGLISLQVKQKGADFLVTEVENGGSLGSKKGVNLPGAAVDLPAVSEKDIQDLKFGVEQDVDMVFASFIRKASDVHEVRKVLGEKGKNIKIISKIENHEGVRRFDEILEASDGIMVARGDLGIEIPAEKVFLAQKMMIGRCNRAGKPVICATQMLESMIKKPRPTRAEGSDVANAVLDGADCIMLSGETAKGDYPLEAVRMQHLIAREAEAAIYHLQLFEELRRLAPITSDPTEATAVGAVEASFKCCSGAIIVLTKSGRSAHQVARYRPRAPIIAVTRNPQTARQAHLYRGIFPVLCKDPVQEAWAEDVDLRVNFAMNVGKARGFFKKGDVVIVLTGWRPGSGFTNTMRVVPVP
Assay: PKM2 activation biochemical assay (AC50 / max. response vs fructose 1,6-bisphosphate)
Conditions: % maximum response in a biochemical assay as compared with Fructose 1,6-bisphosphate
measured endpoint: Max. Resp. (%)
Numbers only, in %.

Previously resolved entries follow.
molecule: Nc1cccc(CN(CCN2CCCCCC2)C(=O)c2cc(C(F)(F)F)n[nH]2)c1Cl
measured on: PKM2 (Homo sapiens)
Max. Resp. (%): 100
//
molecule: O=C(c1cc(C(F)(F)F)n[nH]1)N(Cc1ccccc1F)CC1CCOCC1
measured on: PKM2 (Homo sapiens)
Max. Resp. (%): 52
//
molecule: CN1CCN(CCN(Cc2ccccc2Cl)C(=O)c2cc(C(F)(F)F)n[nH]2)CC1
measured on: PKM2 (Homo sapiens)
Max. Resp. (%): 63
//
molecule: O=C(c1cc(C(F)(F)F)n[nH]1)N(CCN1CCCC1)Cc1c(Cl)cccc1Cl
measured on: PKM2 (Homo sapiens)
Max. Resp. (%): 100
//
molecule: Nc1cccc(Cl)c1CN(CCN1CC[C@H](F)C1)C(=O)c1cc(C(F)(F)F)n[nH]1
measured on: PKM2 (Homo sapiens)
Max. Resp. (%): 100
//
molecule: O=C(c1cc(C(F)(F)F)n[nH]1)N(Cc1ccccc1F)CC1COC1
measured on: PKM2 (Homo sapiens)
Max. Resp. (%): 70

Could you report Max. Resp. (%) for every entry in the following list?
1. O=C(c1cc(C(F)(F)F)n[nH]1)N(CCC1CCS(=O)(=O)C1)Cc1ccncc1 (centres unmarked)
2. O=C(c1cc(C(F)(F)F)n[nH]1)N(CCC1CCOC1)Cc1c(F)cccc1F (centres unmarked)
3. O=C(c1cc(C(F)(F)F)n[nH]1)N(CCN1CCS(=O)(=O)CC1)Cc1c(F)cccc1F
4. CO[C@H]1CC[C@H](N(Cc2cc(F)cc(F)c2)C(=O)c2cc(C(F)(F)F)n[nH]2)CC1

1. 35
2. 114
3. 94
4. 31
